Assay: Cytotoxicity against human KB-3-1 cells after 96 hrs by MTA assay
Format: functional, cell-based
Conditions: KB 3-1, 96 h
pIC50: −log10 of the molar value.
pIC50 listing for selected compounds.

| compound | pIC50 |
| --- | --- |
| COc1cc2c(c3c1c(=O)c1cc4cc(Br)ccc4cc1n3C)[C@@H](OC(C)=O)[C@@H](OC(C)=O)C(C)(C)O2 (racemic) | 6.94 |
| CC1(C)C=Cc2c(cc(O)c3c(=O)c4c(ccc5cc(Br)ccc54)[nH]c23)O1 | 5.77 |
| COc1cc2c(c3c1c(=O)c1cc4cc(Br)ccc4cc1n3C)C=CC(C)(C)O2 | 5.00 |
| COc1cc2c(c3c1c(=O)c1cc4ccccc4cc1n3C)C=CC(C)(C)O2 [BENZO[B]ACRONYCINE] | 5.47 |
| COc1cc2c(c3c1c(=O)c1c4ccc(Br)cc4ccc1n3C)[C@H]1OC(=O)O[C@H]1C(C)(C)O2 (racemic) | 7.82 |
| Cn1c2cc3ccc(Br)cc3cc2c(=O)c2c(O)cc3c(c21)C=CC(C)(C)O3 | 4.84 |

Hello, the source for this data is ChEMBL document CHEMBL1770063, in case you need it.
